Every entry's value here was drawn from the supplement of paper PMC11061612.

Test system: SCC-4 (Oral Cavity Carcinoma);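 also: after 72 h of two-drug dosing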
Test: Bliss excess, mean over the matrix (fraction); higher = more synergy
READOUT_KIND: Bliss excess
Number only, no unit.

Exam item: # return recorded Bliss excess for input C[C@@H](Nc1cc(F)cc(F)c1)c1cc(C(=O)N(C)C)cc2c(=O)cc(N3CCOCC3)oc12 [AZD8186] + CC(=O)c1c(C)c2cnc(Nc3ccc(N4CCNCC4)cn3)nc2n(C2CCCC2)c1=O [Palbociclib] (first compound max 10 µM, 7x7, partner max 10 µM)
Marked response: 0.0328

Exam item: Give reported Bliss excess value for CC(=O)c1c(C)c2cnc(Nc3ccc(N4CCNCC4)cn3)nc2n(C2CCCC2)c1=O [Palbociclib] + CC1(C)CCC(CN2CCN(c3ccc(C(=O)NS(=O)(=O)c4ccc(NCC5CCOCC5)c([N+](=O)[O-])c4)c(Oc4cnc5[nH]ccc5c4)c3)CC2)=C(c2ccc(Cl)cc2)C1 [Venetoclax] (first compound max 10 µM, 7x7, partner max 1 µM)
Marked response: -0.0637

Exam item: Given CC1(C)CCC(CN2CCN(c3ccc(C(=O)NS(=O)(=O)c4ccc(NCC5CCOCC5)c([N+](=O)[O-])c4)c(Oc4cnc5[nH]ccc5c4)c3)CC2)=C(c2ccc(Cl)cc2)C1 [Venetoclax] + Cc1cc2ncnn2cc1Nc1ncc2c(n1)n(C1CCOCC1)c(=O)n2C [AZD7648] (first compound max 1 µM, 7x7, partner max 10 µM) , respond with its Bliss excess.
Marked response: -0.0674

Exam item: Give the reported value of Bliss excess for this record: COc1cc2c(cc1OCCCCCOc1cc3c(cc1OC)C(=O)N1C=C(C)C[C@H]1C=N3)N=C[C@@H]1CC(C)=CN1C2=O [SG3199] + O=C(c1cc(Cc2n[nH]c(=O)c3ccccc23)ccc1F)N1CCN(C(=O)C2CC2)CC1 [Olaparib] (first compound max 0.001 µM, 7x7, partner max 10 µM)
Marked response: -0.0545

Exam item: Provide Bliss excess value for the following compound: C[C@@H](Oc1cc(-c2cnn(C3CCNCC3)c2)cnc1N)c1c(Cl)ccc(F)c1Cl [Crizotinib] + CC1=C(C(=CC=C1)Cl)NC(=O)C2=CN=C(S2)NC3=CC(=NC(=N3)C)N4CCN(CC4)CCO [Dasatinib] (first compound max 10 µM, 7x7, partner max 2 µM)
Marked response: 0.0487

Exam item: Retrieve Bliss excess measured for CN(C)CCCOc1ccc(-c2ccc3ncc4c(c3c2)n(C2CCOCC2)c(=O)n4C)cn1 [AZD0156] + CCN(CCO)CCCOc1ccc2c(Nc3cc(CC(=O)Nc4cccc(F)c4)[nH]n3)ncnc2c1 [AZD2811] (first compound max 1 µM, 7x7, partner max 1 µM) and print it.
Marked response: -0.0668

Exam item: Give the value of Bliss excess reported for the following: O=C(c1cc(Cc2n[nH]c(=O)c3ccccc23)ccc1F)N1CCN(C(=O)C2CC2)CC1 [Olaparib] + CC1(C)CCC(CN2CCN(c3ccc(C(=O)NS(=O)(=O)c4ccc(NCC5CCOCC5)c([N+](=O)[O-])c4)c(Oc4cnc5[nH]ccc5c4)c3)CC2)=C(c2ccc(Cl)cc2)C1 [Venetoclax] (first compound max 10 µM, 7x7, partner max 1 µM)
Marked response: -0.0455

Exam item: Note down Bliss excess recorded for N#Cc1cnc(Nc2cc(NC[C@H]3CNCCO3)c(C(F)(F)F)cn2)cn1 [SRA737] + CCc1c2c(nc3ccc(O)cc13)-c1cc3c(c(=O)n1C2)COC(=O)[C@]3(O)CC [SN-38] (first compound max 10 µM, 7x7, partner max 0.3 µM)
Marked response: 0.007

Exam item: Provide one value: measured Bliss excess of COc1nnc2ccc(N3CCC(c4ccc(OCCN5CCN(C)C(=O)[C@H]5C)cc4)CC3)nn12 [AZD5153] + Cn1cnc2c(F)c(Nc3ccc(Br)cc3Cl)c(C(=O)NOCCO)cc21 [Selumetinib] (first compound max 1 µM, 7x7, partner max 10 µM)
Marked response: -0.0332

Exam item: // Input: CC1(C)CCC(CN2CCN(c3ccc(C(=O)NS(=O)(=O)c4ccc(NCC5CCOCC5)c([N+](=O)[O-])c4)c(Oc4cnc5[nH]ccc5c4)c3)CC2)=C(c2ccc(Cl)cc2)C1 [Venetoclax] + Cn1cnc2c(F)c(Nc3ccc(Br)cc3Cl)c(C(=O)NOCCO)cc21 [Selumetinib] (first compound max 1 µM, 7x7, partner max 3 µM) . Output its Bliss excess only.
Marked response: -0.0931

Exam item: In one line, give reported Bliss excess of the entry C=CCn1c(=O)c2cnc(Nc3ccc(N4CCN(C)CC4)cc3)nc2n1-c1cccc(C(C)(C)O)n1 [AZD1775] + CCc1c2c(nc3ccc(O)cc13)-c1cc3c(c(=O)n1C2)COC(=O)[C@]3(O)CC [SN-38] (first compound max 1 µM, partner max 0.3 µM) .
Marked response: -0.0732

Exam item: Complete the entry with Bliss excess for N#Cc1cnc(Nc2cc(NC[C@H]3CNCCO3)c(C(F)(F)F)cn2)cn1 [SRA737] + O=c1[nH]cc(F)c(=O)[nH]1 [5-Fluorouracil] (first compound max 10 µM, 7x7, partner max 20 µM)
Marked response: 0.0952

Exam item: Tell me its Bliss excess given CC(=O)c1c(C)c2cnc(Nc3ccc(N4CCNCC4)cn3)nc2n(C2CCCC2)c1=O [Palbociclib] + Cn1cnc2c(F)c(Nc3ccc(Br)cc3Cl)c(C(=O)NOCCO)cc21 [Selumetinib] (first compound max 10 µM, 7x7, partner max 10 µM) as the entry.
Marked response: 0.0091

Exam item: Entry Cc1c2c(nn1C)CSCc1cc(n(C)n1)CSc1cc(c3ccccc3c1)OCCCc1c(C(=O)O)n(C)c3c-2c(Cl)ccc13 [AZD5991] + Cn1cnc2c(F)c(Nc3ccc(Br)cc3Cl)c(C(=O)NOCCO)cc21 [Selumetinib] (first compound max 1 µM, 7x7, partner max 3 µM) needs its Bliss excess filled in; supply it.
Marked response: 0.0478

* * *

Tested on: NCI-H226 (Mesothelioma)
Assay: combination Emax (second highest fraction inhibited in the dose matrix, 72 h); higher = more inhibition; extreme values may be limits of the assay
Please go through the items and note down their combination Emax.

Exam item: Give the observed combination Emax of CC1(C)CCC(CN2CCN(c3ccc(C(=O)NS(=O)(=O)c4ccc(NCC5CCOCC5)c([N+](=O)[O-])c4)c(Oc4cnc5[nH]ccc5c4)c3)CC2)=C(c2ccc(Cl)cc2)C1 [Venetoclax] + Cn1cnc2c(F)c(Nc3ccc(Br)cc3Cl)c(C(=O)NOCCO)cc21 [Selumetinib] (first compound max 1 µM, 7x7, partner max 3 µM) for NCI-H226 (Mesothelioma).
Marked response: 0.0891

Exam item: Identify measured combination Emax obtained with NCI-H226 (Mesothelioma) for CC1(C)CCC(CN2CCN(c3ccc(C(=O)NS(=O)(=O)c4ccc(NCC5CCOCC5)c([N+](=O)[O-])c4)c(Oc4cnc5[nH]ccc5c4)c3)CC2)=C(c2ccc(Cl)cc2)C1 [Venetoclax] + CCN(CCO)CCCOc1ccc2c(Nc3cc(CC(=O)Nc4cccc(F)c4)[nH]n3)ncnc2c1 [AZD2811] (first compound max 1 µM, 7x7, partner max 1 µM) .
Marked response: 0.158

Exam item: Under NCI-H226 (Mesothelioma), report combination Emax for Cc1c2c(nn1C)CSCc1cc(n(C)n1)CSc1cc(c3ccccc3c1)OCCCc1c(C(=O)O)n(C)c3c-2c(Cl)ccc13 [AZD5991] + CN(C)CCCOc1ccc(-c2ccc3ncc4c(c3c2)n(C2CCOCC2)c(=O)n4C)cn1 [AZD0156] (first compound max 1 µM, 7x7, partner max 1 µM)
Marked response: 0.293

Exam item: Would you please give the reported combination Emax of CCc1c2c(nc3ccc(O)cc13)-c1cc3c(c(=O)n1C2)COC(=O)[C@]3(O)CC [SN-38] + O=C(c1cc(Cc2n[nH]c(=O)c3ccccc23)ccc1F)N1CCN(C(=O)C2CC2)CC1 [Olaparib] (first compound max 0.3 µM, 7x7, partner max 10 µM) with NCI-H226 (Mesothelioma)?
Marked response: 0.168

Exam item: Using NCI-H226 (Mesothelioma) as the test system, report measured combination Emax of COc1nnc2ccc(N3CCC(c4ccc(OCCN5CCN(C)C(=O)[C@H]5C)cc4)CC3)nn12 [AZD5153] + C=CCn1c(=O)c2cnc(Nc3ccc(N4CCN(C)CC4)cc3)nc2n1-c1cccc(C(C)(C)O)n1 [AZD1775] (first compound max 1 µM, partner max 1 µM) .
Marked response: 0.448

Exam item: Tell me combination Emax of Cn1cnc2c(F)c(Nc3ccc(Br)cc3Cl)c(C(=O)NOCCO)cc21 [Selumetinib] + CCN(CCO)CCCOc1ccc2c(Nc3cc(CC(=O)Nc4cccc(F)c4)[nH]n3)ncnc2c1 [AZD2811] (first compound max 10 µM, 7x7, partner max 1 µM) when tested on NCI-H226 (Mesothelioma).
Marked response: 0.216

Exam item: Answer with combination Emax of CCN(CCO)CCCOc1ccc2c(Nc3cc(CC(=O)Nc4cccc(F)c4)[nH]n3)ncnc2c1 [AZD2811] + C=CCn1c(=O)c2cnc(Nc3ccc(N4CCN(C)CC4)cc3)nc2n1-c1cccc(C(C)(C)O)n1 [AZD1775] (first compound max 1 µM, partner max 1 µM) measured for NCI-H226 (Mesothelioma).
Marked response: 0.185
